Biological target: Proto-oncogene tyrosine-protein kinase Src (Homo sapiens, UniProt P12931)
Sequence (P12931 2-536 limits assumed): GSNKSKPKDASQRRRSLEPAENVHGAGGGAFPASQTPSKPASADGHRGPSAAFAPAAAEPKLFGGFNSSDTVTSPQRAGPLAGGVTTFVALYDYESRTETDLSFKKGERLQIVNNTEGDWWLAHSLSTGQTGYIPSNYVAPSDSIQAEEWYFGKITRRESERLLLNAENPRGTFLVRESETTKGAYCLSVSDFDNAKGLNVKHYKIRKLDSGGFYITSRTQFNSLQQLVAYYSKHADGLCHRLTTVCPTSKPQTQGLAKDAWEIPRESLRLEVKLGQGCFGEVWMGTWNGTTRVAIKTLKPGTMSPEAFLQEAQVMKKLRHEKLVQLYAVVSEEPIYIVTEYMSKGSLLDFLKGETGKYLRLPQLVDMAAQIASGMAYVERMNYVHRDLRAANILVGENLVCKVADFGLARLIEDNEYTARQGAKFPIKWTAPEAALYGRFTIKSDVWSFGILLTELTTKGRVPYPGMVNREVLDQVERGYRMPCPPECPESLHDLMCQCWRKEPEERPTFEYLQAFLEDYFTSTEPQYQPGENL
pIC50: −log10 of the molar value.
metricName: pIC50

For each entry beneath this line, provide reported pIC50.
1. CC[C@H](C)[C@H](N)C(=O)N[C@@H](CCC(=O)O)C(=O)N[C@@H](CCC(=O)O)C(=O)N[C@@H](Cc1ccc(O)cc1)C(=O)O
2. CC[C@H](C)[C@H](NC(=O)[C@H](CCC(=O)O)NC(=O)[C@H](CCC(=O)O)NC(=O)[C@@H](N)Cc1ccc(O)cc1)C(=O)O
3. CC[C@H](C)[C@H](NC(=O)[C@H](CCC(=O)O)NC(=O)[C@H](CCC(=O)O)NC(=O)[C@@H](N)Cc1ccccc1)C(=O)O

["< 4.00", "< 4.00", "< 4.00"]
